Biological target: hOCT2 (Homo sapiens)
Sequence (O15244 1-555): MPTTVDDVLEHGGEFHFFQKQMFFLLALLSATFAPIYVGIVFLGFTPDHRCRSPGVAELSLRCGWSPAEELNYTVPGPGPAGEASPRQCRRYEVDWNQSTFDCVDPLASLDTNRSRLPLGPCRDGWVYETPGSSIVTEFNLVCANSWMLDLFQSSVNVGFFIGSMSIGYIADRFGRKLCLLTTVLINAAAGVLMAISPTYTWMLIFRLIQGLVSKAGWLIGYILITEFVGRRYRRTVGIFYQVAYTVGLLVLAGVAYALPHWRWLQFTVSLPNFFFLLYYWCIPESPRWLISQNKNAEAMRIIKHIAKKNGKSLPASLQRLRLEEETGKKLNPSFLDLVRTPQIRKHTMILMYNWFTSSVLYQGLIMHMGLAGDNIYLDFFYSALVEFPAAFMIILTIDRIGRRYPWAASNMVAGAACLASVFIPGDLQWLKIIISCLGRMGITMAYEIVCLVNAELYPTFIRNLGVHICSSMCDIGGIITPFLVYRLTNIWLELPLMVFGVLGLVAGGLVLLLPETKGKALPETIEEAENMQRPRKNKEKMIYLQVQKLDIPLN
Assay: ASP+ uptake (saturation and inhibition) in hOCT2-HEK cells
Format: cell-based
Set-up: expressed in transfected cells; host or cells: HEK293, stably transfected; gift of Prof; Koepsell (University of Würzburg)
MEASURED QUANTITY: IC50

INSERT INTO assay_data (compound_structure_string, recorded_result) VALUES
  ('CCCCC[N+](CCCCC)(CCCCC)CCCCC', '1400 nM');
